B1: ALDH8A1 (parent)
chain: RVAKKLQSGLVWTNCWLIRELNLP

Variants of: B1
assay.text: protein stability index of a GFP-peptide fusion (GPS, HEK-293T) (PSI 1-6); higher = more stable;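 note: lentivirally expressed fusions sorted by FACS into six bins by GFP to DsRed ratio, PSI derived from sequencing read proportions per bin multiplied by bin number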
test.parameters: c terminus: a fixed tail appended
measurement.name: protein stability index
Returns: the value as a bare number; no unit string appended.

These recorded examples may help you get a feel for the data.
L21W    2.9
V11E    2.29
W16Q    1.03
L6T    2.31
S8T    1.94

Query :: Endpoint output: protein stability index of R1P . Value?
Result :: 2.46

Query :: And for A3P ?
Result :: 3.51

Query :: Same lookup for V11W , please.
Result :: 4.66

Query :: Consider next the variant N14D in the same way.
Result :: 2.19

Query :: V11L , same question.
Result :: 2.91
